Assay comment: reducers of endogenous Her2 protein level, primary screen, SKBR3 breast tumor cells, AlphaScreen, ATP viability (AID 461);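 further: percent of carrier control wells set as 100% viability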
Conditions: 18-24 h, measured here: SKBR3 viability, ATP luminescence, at 10 µM
Result type: viability (%)
The reply should contain only the number, in %.

Identify measured viability associated with COC(=O)c1cccc(NC(=O)CSc2nnc(COc3ccc(C#N)cc3)n2-c2ccccc2)c1
92

Identify measured viability associated with COc1ccc(CC(=O)N2CCOCC2)cc1OC
97.5

Identify measured viability associated with CCOC(=O)CSc1nc2ccccc2n2cnnc12
104

Identify measured viability associated with CC1Cc2cc(/C(O)=C3/C(=O)C(=O)N(CCN4CCOCC4)C3c3cccc(O)c3)ccc2O1 (stereo not drawn)
98.5

Identify measured viability associated with O=C(O)CCCc1nc(-c2ccccc2)no1
91.5

Identify measured viability associated with CC(c1nnc(SCC(=O)Nc2sccc2C#N)n1-c1ccc(Cl)cc1)N(C)C (stereo not drawn)
103

Identify measured viability associated with CCCCc1nccn1CCn1ccnc1CCCC
87

Identify measured viability associated with COc1cccc(Oc2ccc(N)cn2)c1
87

Identify measured viability associated with CCOC(=O)C1CCN(c2nc3ccccc3nc2C(C#N)C(=O)OCCOC)CC1 (stereo not drawn)
97

Identify measured viability associated with O=C(Nc1cccc(C(F)(F)F)c1)c1ccco1
129

Identify measured viability associated with Cn1c(-c2ccccc2)c(CCO)c2ccccc21
97

Identify measured viability associated with CCN(C(=O)CCc1nc(-c2ccccc2F)no1)c1cc(OC)ccc1OC
87.5

Identify measured viability associated with CCCCOc1cccc(NC(=O)CSc2nccn2C)c1
107

Identify measured viability associated with CN(C)/C=N/c1ncnc2c1cnn2-c1ccc(C(F)(F)F)cn1
108

Identify measured viability associated with Cc1ccc(NC(=O)Nc2ccc3c(c2)N(C)C(=O)CS3)nc1
108

Identify measured viability associated with Cc1ccc2c(c1)CCCN2C(=O)Nc1ccc2c(c1)OCO2
95.5

Identify measured viability associated with COc1ccc(NC(=O)Nc2ccc(C)cc2OC(F)F)cc1OC
95

Identify measured viability associated with CC(C)(C)OC(=O)N1CC(O)CC1C(=O)OCC(=O)c1ccc(Cl)cc1 (stereo not drawn)
95

Identify measured viability associated with NC1=NC(c2ccc(Br)cc2)n2c(nc3ccccc32)N1 (stereo not drawn)
90

Identify measured viability associated with COC(=O)c1c(N)nc(C)n1-c1ccc(OC)cc1
86.5

Identify measured viability associated with Cc1nc(/N=C(\N)Nc2ccccc2)nc2ccccc12
91.5

Identify measured viability associated with CCn1nnc(NC(=O)c2ccc(-c3ccc(Cl)cc3)o2)n1
87.5

Identify measured viability associated with CC12CCC(C(=O)N3CCCCC3)(CC1=O)C2(C)C (stereo not drawn)
97.5

Recorded values, source PubChem BioAssay.
